Origin of measurements: patent US10471046B2

Tested on: S. aureus
Assay: Minimum inhibitory concentrations (MICs) for S. aureus of exemplary compounds (Table 2)
Assay type: cell-based
Details: Staphylococcus aureus, minimum inhibitory concentrations for S. aureus; read-out: MICs
Description: Exemplary compounds in accordance with the invention are listed in Table 2 with their minimum inhibitory concentrations (MICs) (μg/mL) for S. aureus: Furthermore, the antibiotic compounds can be assayed for anti-proliferative or anti-infective properties on a cellular level. For example, where the target organism is a microorganism, the activity of compounds of interest can be assayed by growing the microorganisms of interest in media either containing or lacking the compound. […]
Rule for this label: criterion met means MIC is less than 2 µg/mL; criterion not met means MIC is at least 2 µg/mL.

* CC(=O)NC[C@H]1CN(c2ccc(-c3ccc(CN(CCCF)OCc4ccccc4)cc3)c(F)c2)C(=O)O1 | criterion not met
* CC(=O)NC[C@H]1CN(c2ccc(-c3ccc(CNCc4cccnc4F)cc3)c(F)c2)C(=O)O1 | criterion met
* CC(=O)NC[C@H]1CN(c2ccc(-c3ccc(CN(C)Cc4cnn[nH]4)cc3)c(F)c2)C(=O)O1 | criterion met
* CC(=O)NC[C@H]1CN(c2ccc(-c3ccc(Cn4nnc(N)n4)cc3)c(F)c2)C(=O)O1 | criterion met
* CC(=O)NC[C@H]1CN(c2ccc(-c3ccc(CNCc4c(-c5ccccc5)noc4C)cc3)c(F)c2)C(=O)O1 | criterion met
* CCOC(=O)c1c(CNCc2ccc(-c3ccc(N4C[C@H](CNC(C)=O)OC4=O)cc3F)cc2)c(C)n(C2CC2)c1C | criterion not met
* CC(=O)NC[C@H]1CN(c2ccc(-c3ccc([C@H](CO)n4ccnn4)cc3)c(F)c2)C(=O)O1 | criterion met
* CC(=O)NC[C@H]1CN(c2ccc(-c3ccc(CNCCSc4nccs4)cc3)c(F)c2)C(=O)O1 | criterion met
* CC(=O)NC[C@H]1CN(c2ccc(-c3ccc(CNC(=O)[C@@H](Cc4c[nH]c5ccccc45)NC(=O)OC(C)(C)C)cc3)c(F)c2)C(=O)O1 | criterion not met
* CSc1nnn(Cc2ccc(-c3ccc(N4C[C@H](CNC(C)=O)OC4=O)cc3F)cc2)n1 | criterion met
* CCc1ncc(CNCc2ccc(-c3ccc(N4C[C@H](CNC(C)=O)OC4=O)cc3F)cc2)[nH]1 | criterion not met
* NC[C@H]1CN(c2ccc(-c3ccc(Cn4cnnn4)cc3)c(F)c2)C(=O)O1 | criterion not met
* CC(=O)NC[C@H]1CN(c2ccc(-c3ccc(Cn4cncn4)nc3)c(F)c2)C(=O)O1 | criterion met
* CC(=O)NC[C@H]1CN(c2ccc(-c3ccc(CNCc4ccsc4)cc3)c(F)c2)C(=O)O1 | criterion not met
* CC(=O)NC[C@H]1CN(c2ccc(-c3ccc(CNCCSc4cnn[nH]4)cc3)c(F)c2)C(=O)O1 | criterion met
* CC(=O)NC[C@H]1CN(c2ccc(-c3ccc(Cn4cc(C)nc4C)cc3)c(F)c2)C(=O)O1 | criterion met
* CC(=O)NC[C@H]1CN(c2ccc(-c3cccc(CNCc4csnn4)c3)c(F)c2)C(=O)O1 | criterion not met
* CC(=O)NC[C@H]1CN(c2ccc(-c3ccc(Cn4ccnc4)nc3)c(F)c2)C(=O)O1 | criterion not met
* CC(=O)NC[C@H]1CN(c2ccc(-c3ccc(CNCc4csc5ccccc45)cc3)c(F)c2)C(=O)O1 | criterion not met
* CC(=O)NC[C@H]1CN(c2ccc(-c3ccc(CNCCSc4nnc[nH]4)cc3)c(F)c2)C(=O)O1 | criterion met
